Just for reference, the supplement of paper PMC4862054 is where these values come from.

Each entry below lists one item and its recorded normalised response value.
Test system: HCC1599
Assay: normalised response (% of control), CellTox Green; higher = less cell death (100 = DMSO, 0 = benzethonium chloride kill control)
Conditions: incubation time: 72 h
Give the number; % is assumed, so skip it.

# example entries with known answers
COc1cc2nccc(Oc3ccc(NC(=O)Nc4cc(C)on4)c(Cl)c3)c2cc1OC [Tivozanib] (10000 nM) :: 102
COc1cc2c(NC3CCN(C(C)C)CC3)nc(C3CCCCC3)nc2cc1OCCCN1CCCC1 [UNC0638] (1000 nM) :: 89.1
O=C(O)C1(C(=O)O)CCC1.[NH2-].[NH2-].[Pt+2] [Carboplatin] (100 nM) :: 100

Form: compound = CC(=O)Nc1cccc(-n2c(=O)n(C3CC3)c(=O)c3c(Nc4ccc(I)cc4F)n(C)c(=O)c(C)c32)c1 [Trametinib] (250 nM) ; normalised response = 110
